System: A549/ATCC NSCLC
Experiment: NCI-60 one-dose screen, 48 h
Conditions: 10 µM unless noted
Compounds without any hit were thinned out: in the full panel of roughly 83,000, 20% have a hit. The source made the active and inactive calls. How the source made its calls: active means growth percent below 10; inactive means the rest.
Response enum: 1 (yes) (active), 0 (no) (inactive)

IN: Assay outcome for O=C(Nc1cccc(-n2ccc3c(NC(=O)c4ccccc4)nccc32)c1)Nc1ccc(Cl)c(C(F)(F)F)c1 : what was it?
OUT: 1 (yes)

IN: Assay outcome for COc1ccc(C2=NN(C(=O)COc3ccc(Cl)cc3)C(O)(c3cc(F)c(Cl)cc3Cl)C2)cc1 (centres undefined) : what was it?
OUT: 0 (no)

IN: Assay outcome for CC[C@@]1(O)C(=O)OCc2c1cc1n(c2=O)Cc2c-1nc1ccccc1c2/C=N/OC(C)(C)C : what was it?
OUT: 1 (yes)

IN: Assay outcome for Oc1ccc(O)c(-[n+]2ccccc2)c1 : what was it?
OUT: 0 (no)

IN: Assay outcome for Cc1cn(C2CC(F)C(CO)O2)c(=O)[nH]c1=O (centres undefined) : what was it?
OUT: 0 (no)

IN: Assay outcome for CN[C@@H](CCCNC(N)=NC/C=C(/C)CCC=C(C)C)C(=O)N(C)[C@@H](CCCNC(N)=NCC=C(C)C)C(=O)N[C@H](C)[C@H](OS(=O)(=O)O)c1ccc(OS(=O)(=O)O)c(COS(=O)(=O)O)c1 : what was it?
OUT: 0 (no)

IN: Assay outcome for Cc1cn(-c2nc3c(c(NCc4ccccc4)n2)COCC3)c2cccc(C(N)=O)c12 : what was it?
OUT: 0 (no)

IN: Assay outcome for COc1ccc2c(c1)OC(N)=C(C#N)C2c1ccc(F)c(F)c1 (centres undefined) : what was it?
OUT: 0 (no)

IN: Assay outcome for Cl[C@@H]1CCO[C@H](c2cc3ccccc3c3ccccc23)C1 : what was it?
OUT: 0 (no)
